# Test system: Citrobacter freundii EC-34
# Assay Overview: Antibacterial activity (MIC), Citrobacter freundii EC-34
# Assay type: cell-based
# Stated Conditions: EC34; Citrobacter freundii EC-34, β Lactamase producing bacteria

{"Molecule": "CO/N=C(\\C(=O)N[C@@H]1C(=O)N2C(C(=O)[O-])=C(C[N@+]3(C)CCC[C@H]3CO)CS[C@H]12)c1nsc(N)n1", "MIC / µg/mL": 0.05}
{"Molecule": "CO/N=C(\\C(=O)N[C@@H]1C(=O)N2C(C(=O)[O-])=C(C[N@+]3(C)CCC[C@H]3C)CS[C@H]12)c1nsc(N)n1", "MIC / µg/mL": 0.2}
{"Molecule": "CO/N=C(\\C(=O)N[C@@H]1C(=O)N2C(C(=O)[O-])=C(C[N@+]3(C)CCC[C@H]3C(N)=O)CS[C@H]12)c1csc(N)n1 [Control Compound, reference compound]", "MIC / µg/mL": 0.2}
{"Molecule": "CO/N=C(\\C(=O)N[C@@H]1C(=O)N2C(C(=O)[O-])=C(C[N@+]3(C)CCC[C@H]3CO)CS[C@H]12)c1csc(N)n1", "MIC / µg/mL": 0.05}
{"Molecule": "CO/N=C(\\C(=O)N[C@@H]1C(=O)N2C(C(=O)[O-])=C(C[N@@+]3(C)CCC[C@H]3CO)CS[C@H]12)c1nsc(N)n1", "MIC / µg/mL": 0.1}
{"Molecule": "CO/N=C(\\C(=O)N[C@@H]1C(=O)N2C(C(=O)[O-])=C(C[N@+]3(C)CCC[C@H]3C(N)=O)CS[C@H]12)c1nsc(N)n1", "MIC / µg/mL": 0.05}

---

# Tested on: Staphylococcus aureus 209-P
Value Type: MIC

{"Compound": "CO/N=C(\\C(=O)N[C@@H]1C(=O)N2C(C(=O)[O-])=C(C[N@@+]3(C)CCC[C@H]3CO)CS[C@H]12)c1nsc(N)n1 [Example 1-B]", "Value Type": "MIC", "Data Value": "1.56 mg/L"}
{"Compound": "CO/N=C(\\C(=O)N[C@@H]1C(=O)N2C(C(=O)[O-])=C(C[N@+]3(C)CCC[C@H]3CO)CS[C@H]12)c1csc(N)n1 [Example 5]", "Value Type": "MIC", "Data Value": "0.8 mg/L"}
{"Compound": "CO/N=C(\\C(=O)N[C@@H]1C(=O)N2C(C(=O)[O-])=C(C[N@+]3(C)CCC[C@H]3C)CS[C@H]12)c1nsc(N)n1 [Example 3]", "Value Type": "MIC", "Data Value": "1.56 mg/L"}

---

Staphylococcus aureus 209-P: reported MIC for various compounds.
Value Type: MIC (µg/mL)

{"Compound": "CO/N=C(\\C(=O)N[C@@H]1C(=O)N2C(C(=O)[O-])=C(C[N@+]3(C)CCC[C@H]3C(N)=O)CS[C@H]12)c1csc(N)n1 [Control Compound, reference compound]", "Data Value": 1.56}
{"Compound": "CO/N=C(\\C(=O)N[C@@H]1C(=O)N2C(C(=O)[O-])=C(C[N@+]3(C)CCC[C@H]3C(N)=O)CS[C@H]12)c1nsc(N)n1", "Data Value": 1.56}
{"Compound": "CO/N=C(\\C(=O)N[C@@H]1C(=O)N2C(C(=O)[O-])=C(C[N@+]3(C)CCC[C@H]3CO)CS[C@H]12)c1nsc(N)n1", "Data Value": 1.56}

---

# Tested on: Pseudomonas aeruginosa EP-01
# Assay Overview: Antibacterial activity (MIC), Pseudomonas aeruginosa EP-01
# Format: cell-based
# Stated Conditions: EP01
Value Type: MIC (µg/mL)

{"Compound": "CO/N=C(\\C(=O)N[C@@H]1C(=O)N2C(C(=O)[O-])=C(C[N@+]3(C)CCC[C@H]3C(N)=O)CS[C@H]12)c1nsc(N)n1", "Data Value": 1.56}
{"Compound": "CO/N=C(\\C(=O)N[C@@H]1C(=O)N2C(C(=O)[O-])=C(C[N@+]3(C)CCC[C@H]3CO)CS[C@H]12)c1csc(N)n1", "Data Value": 3.13}
{"Compound": "CO/N=C(\\C(=O)N[C@@H]1C(=O)N2C(C(=O)[O-])=C(C[N@+]3(C)CCC[C@H]3C(N)=O)CS[C@H]12)c1csc(N)n1 [Control Compound, reference compound]", "Data Value": 6.25}
{"Compound": "CO/N=C(\\C(=O)N[C@@H]1C(=O)N2C(C(=O)[O-])=C(C[N@+]3(C)CCC[C@H]3C)CS[C@H]12)c1nsc(N)n1", "Data Value": 1.56}
{"Compound": "CO/N=C(\\C(=O)N[C@@H]1C(=O)N2C(C(=O)[O-])=C(C[N@@+]3(C)CCC[C@H]3CO)CS[C@H]12)c1nsc(N)n1", "Data Value": 1.56}
{"Compound": "CO/N=C(\\C(=O)N[C@@H]1C(=O)N2C(C(=O)[O-])=C(C[N@+]3(C)CCC[C@H]3CO)CS[C@H]12)c1nsc(N)n1", "Data Value": 0.8}

---

# Assay Overview: Acute toxicity, LD50 (mouse, intravenous injection)
# Stated Conditions: in vivo
Catalogue of compounds with associated LD50

{"Smiles Code": "CO/N=C(\\C(=O)N[C@@H]1C(=O)N2C(C(=O)[O-])=C(C[N@+]3(C)CCC[C@H]3CO)CS[C@H]12)c1csc(N)n1", "LD50": "> 3000 mg/kg"}
{"Smiles Code": "CO/N=C(\\C(=O)N[C@@H]1C(=O)N2C(C(=O)[O-])=C(C[N@+]3(C)CCC[C@H]3CO)CS[C@H]12)c1nsc(N)n1", "LD50": "> 3000 mg/kg"}
{"Smiles Code": "CO/N=C(\\C(=O)N[C@@H]1C(=O)N2C(C(=O)[O-])=C(C[N@+]3(C)CCC[C@H]3C(N)=O)CS[C@H]12)c1nsc(N)n1", "LD50": "> 3000 mg/kg"}
{"Smiles Code": "CO/N=C(\\C(=O)N[C@@H]1C(=O)N2C(C(=O)[O-])=C(C[N@+]3(C)CCC[C@H]3C)CS[C@H]12)c1nsc(N)n1", "LD50": "> 3000 mg/kg"}
